Overview of reported inhibition at 0.1 µM across a group of molecules:
# Tested on: H358 cells
# procedure_summary: Inhibition of KRas-mediated phosphorylation of ERK (Cisbio HTRF pERK), H358 cells
# Assay type: cell-based
# condition_notes: Homo sapiens, NCI-H358, single point at 100 nM, 3 hrs compound incubation
quantity_measured: inhibition at 0.1 µM (%)

[
  {
    "molecule": "CCc1c(F)ccc2cc(O)cc(N3CCc4c(nc(OC[C@@]56CCCN5C[C@H](F)C6)nc4N4CCCn5nnc(Br)c5C4)C3)c12",
    "quantity_measured": "inhibition at 0.1 µM",
    "measured": 89
  },
  {
    "molecule": "CCc1c(F)ccc2cc(O)cc(N3CCc4c(nc(OC[C@@]56CCCN5C[C@H](F)C6)nc4N4CCCn5nc(C(=O)N6CC7CCC6CN7)cc5C4)C3)c12 (stereo partly drawn)",
    "quantity_measured": "inhibition at 0.1 µM",
    "measured": 43
  },
  {
    "molecule": "CCc1c(F)ccc2cc(O)cc(N3CCc4c(nc(OC[C@@]56CCCN5C[C@H](F)C6)nc4N4CCCCC(COC(C)C(=O)N(C)C)C4)C3)c12 (stereo partly drawn)",
    "quantity_measured": "inhibition at 0.1 µM",
    "measured": -7
  }
]

----------
# system: KRas WT (Homo sapiens)
# Sequence (P01116 1-169 isoform P01116-2): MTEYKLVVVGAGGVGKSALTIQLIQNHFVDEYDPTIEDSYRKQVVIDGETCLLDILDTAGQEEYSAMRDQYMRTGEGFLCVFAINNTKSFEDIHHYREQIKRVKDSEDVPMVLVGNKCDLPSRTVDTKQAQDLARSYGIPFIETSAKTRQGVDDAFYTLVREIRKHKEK
# procedure_summary: KRas binding assay (TR-FRET displacement), KRas WT
# condition_notes: TR-FRET displacement
Labels assigned by IC50 range: lower bin (below 20 nM), middle bin (20 nM to below 800 nM), upper bin (800 nM or more)

[
  {
    "compound": "CCc1cccc2cccc(N3CCc4c(nc(OCC5(CN(C)C)CC5)nc4NCc4ccnn4CC(F)F)C3)c12 [Example 683]",
    "class": "upper bin"
  },
  {
    "compound": "Cc1cc2[nH]ncc2c(N2CCc3c(nc(OCC45CCCN4CCC5)nc3N3CC4C(=O)NC(=O)C4C3)C2)c1C (stereo not drawn) [Example 458]",
    "class": "middle bin"
  },
  {
    "compound": "C[C@@H]1C[C@@H]1c1c(Cl)cc(O)cc1N1CCc2c(nc(OC[C@@]34CCCN3C[C@H](F)C4)nc2N2CCC[C@@](C)(O)C2)C1 (stereo in doubt) [Example 655]",
    "class": "lower bin"
  },
  {
    "compound": "C=C1CN2CCCC2(COc2nc3c(c(N4CCCC5(CC(O)C5)C4)n2)CCN(c2cc(O)cc4ccc(F)c(CC)c24)C3)C1 (stereo not drawn) [Example 660]",
    "class": "lower bin"
  },
  {
    "compound": "Oc1cc(Cl)c(C2CC2)c(N2CCc3c(nc(OCC45CCCN4CCC5)nc3N3CCC[C@]4(C3)C[C@@H](O)C4)C2)c1 [Example 441]",
    "class": "lower bin"
  },
  {
    "compound": "CCc1cccc2cccc(N3CCc4c(nc(OCC5(CN(C)C)CC5)nc4NCc4c(C)nnn4CC)C3)c12 [Example 518]",
    "class": "middle bin"
  },
  {
    "compound": "Cc1cc2[nH]ncc2c(N2CCc3c(nc(OCC45CCCN4CCC5)nc3N3CCCC4(CNC(=O)N4)C3)C2)c1C (stereo not drawn) [Example 461]",
    "class": "middle bin"
  },
  {
    "compound": "CCc1cccc2cccc(N3CCc4c(nc(OCC5(CN(C)C)CC5)nc4NCc4cnc(C)nc4N)C3)c12 [Example 677]",
    "class": "upper bin"
  },
  {
    "compound": "C[C@@]1(O)CCCN(c2nc(OC[C@@]34CCCN3C[C@H](F)C4)nc3c2CCN(c2ccc(F)c4sc(N)c(C#N)c24)C3)C1 [Example 711]",
    "class": "lower bin"
  },
  {
    "compound": "O=C1NC(=O)[C@]2(CCCN(c3nc(OCC45CCCN4CCC5)nc4c3CCN(c3c(C5CC5)c(Cl)cc5[nH]ncc35)C4)C2)N1 [Example 471]",
    "class": "lower bin"
  },
  {
    "compound": "CN(C)C(=O)c1cc2n(n1)CCCN(c1nc(OCC34CCCN3CCC4)nc3c1CCN(c1cc(O)cc(Cl)c1C1CC1)C3)C2 [Example 437]",
    "class": "lower bin"
  },
  {
    "compound": "CN1CCC[C@H]1COc1nc2c(c(N3CCCC4(CC(O)C4)C3)n1)CCN(c1cccc3cccc(Cl)c13)C2 (stereo partly drawn) [Example 484]",
    "class": "upper bin"
  },
  {
    "compound": "O=C1NCC2(CCCN(c3nc(OCC45CCCN4CCC5)nc4c3CCN(c3cc(O)cc(Cl)c3C3CC3)C4)C2)N1 (stereo not drawn) [Example 442]",
    "class": "lower bin"
  },
  {
    "compound": "O=S1(=O)NCC2(CCCN(c3nc(OCC45CCCN4CCC5)nc4c3CCN(c3cc(O)cc(Cl)c3C3CC3)C4)C2)N1 (stereo not drawn) [Example 438]",
    "class": "lower bin"
  },
  {
    "compound": "O=C1CC2(CCCN(c3nc(OCC45CCCN4CCC5)nc4c3CCN(c3cc(O)cc(Cl)c3C3CC3)C4)C2)N1 (stereo not drawn) [Example 443]",
    "class": "lower bin"
  },
  {
    "compound": "CCc1cccc2cccc(N3CCc4c(nc(OCC5(CN(C)C)CC5)nc4N4CCOC(C(F)F)CC4)C3)c12 (stereo not drawn) [Example 544]",
    "class": "middle bin"
  },
  {
    "compound": "CCc1cccc2cccc(N3CCc4c(nc(OCC5(CN(C)C)CC5)nc4NCCc4sc(N)nc4C)C3)c12 [Example 670]",
    "class": "upper bin"
  },
  {
    "compound": "C=C1CN2CCCC2(COc2nc3c(c(N4CC5CC(O)CC4C5)n2)CCN(c2cc(O)cc4ccc(F)c(CC)c24)C3)C1 (stereo not drawn) [Example 661]",
    "class": "middle bin"
  },
  {
    "compound": "CCc1c(F)ccc2cc(O)cc(N3CCc4c(nc(OCC56CCCN5C/C(=C\\F)C6)nc4N4C[C@@H]5C[C@H](C4)[C@H](O)C5)C3)c12 (stereo partly drawn) [Example 576]",
    "class": "lower bin"
  },
  {
    "compound": "Cc1cc2[nH]ncc2c(N2CCc3c(nc(OCC45CCCN4CCC5)nc3N3CCCC4(CNS(=O)(=O)N4)C3)C2)c1C (stereo not drawn) [Example 452]",
    "class": "lower bin"
  },
  {
    "compound": "CCc1cccc2cccc(N3CCc4c(nc(OCC5(CN(C)C)CC5)nc4N4CCCC(n5ccc(C)n5)C4)C3)c12 (stereo not drawn) [Example 535]",
    "class": "upper bin"
  },
  {
    "compound": "Cc1cc2[nH]ncc2c(N2CCc3c(nc(OCC45CCCN4CCC5)nc3N3CCCC4(CC(O)C4)C3)C2)c1C (single isomer, unassigned; isomer 1) [Example 453]",
    "class": "upper bin"
  },
  {
    "compound": "CCc1cccc2cccc(N3CCc4c(nc(OCC5(CN(C)C)CC5)nc4N(C)Cc4nnc5c(=O)n(C)ccn45)C3)c12 [Example 700]",
    "class": "middle bin"
  },
  {
    "compound": "CCc1cccc2cccc(N3CCc4c(nc(OCC5(CN(C)C)CC5)nc4NCc4cc(CO)[nH]n4)C3)c12 [Example 539]",
    "class": "upper bin"
  },
  {
    "compound": "O=C1NC(=O)C2(CCCN(c3nc(OCC45CCCN4CCC5)nc4c3CCN(c3cc(O)cc(Cl)c3C3CC3)C4)C2)N1 (stereo not drawn) [Example 439]",
    "class": "lower bin"
  },
  {
    "compound": "CCc1cccc2cccc(N3CCc4c(nc(OCC5(CN(C)C)CC5)nc4N4CCCOC(CCO)C4)C3)c12 (stereo not drawn) [Example 515]",
    "class": "middle bin"
  },
  {
    "compound": "CCc1cccc2cccc(N3CCc4c(nc(OCC5(CN(C)C)CC5)nc4NC4CN(c5nccn6nc(C)cc56)C4)C3)c12 [Example 699]",
    "class": "upper bin"
  }
]

----------
# system: KRas Q61H (Homo sapiens, UniProt P01116, Q61H)
# Sequence (P01116 1-169 isoform P01116-2 Q61H): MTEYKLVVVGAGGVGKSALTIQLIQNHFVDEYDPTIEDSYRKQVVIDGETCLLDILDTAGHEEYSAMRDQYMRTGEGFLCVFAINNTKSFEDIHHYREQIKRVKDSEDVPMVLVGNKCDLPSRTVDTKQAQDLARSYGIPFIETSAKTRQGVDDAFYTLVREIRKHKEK
# procedure_summary: KRas binding assay (TR-FRET displacement), KRas Q61H
# condition_notes: single point, 10 nM compound

[
  {
    "compound": "CCc1c(F)ccc2cc(O)cc(N3CCc4c(nc(OC[C@@]56CCCN5C[C@H](F)C6)nc4N4CCCn5nc(C(=O)N(C)C)c(OC)c5C4)C3)c12 [Example 370]",
    "inhibition at 0.01 µM / %": 98
  },
  {
    "compound": "CCc1c(F)ccc2cc(O)cc(N3CCc4c(nc(OC[C@@]56CCCN5C[C@H](F)C6)nc4N4CCCn5nc(C(=O)N(C)CCOC)cc5C4)C3)c12 [Example 382]",
    "inhibition at 0.01 µM / %": 97
  },
  {
    "compound": "CCc1c(F)ccc2cc(O)cc(N3CCc4c(nc(OC[C@@]56CCCN5C[C@H](F)C6)nc4N4CCCn5nc(C(=O)N(C)C)nc5C4)C3)c12 [Example 403]",
    "inhibition at 0.01 µM / %": 100
  },
  {
    "compound": "CCc1c(F)ccc2cc(O)cc(N3CCc4c(nc(OC[C@@]56CCCN5C[C@H](F)C6)nc4N4CCCn5nc6c(c5C4)CCCNC6=O)C3)c12 [Example 415]",
    "inhibition at 0.01 µM / %": 100
  },
  {
    "compound": "CCc1c(F)ccc2cc(O)cc(N3CCc4c(nc(OC[C@@]56CCCN5C[C@H](F)C6)nc4N4CCCn5nc(C(=O)N6CC7CC(C6)N7)cc5C4)C3)c12 [Example 283]",
    "inhibition at 0.01 µM / %": 97
  },
  {
    "compound": "CCc1c(F)ccc2cc(O)cc(N3CCc4c(nc(OC[C@@]56CCCN5C[C@H](F)C6)nc4N4CCCn5nc(N)c(Cl)c5C4)C3)c12 [Example 358]",
    "inhibition at 0.01 µM / %": 95
  }
]
